Molecular target: CYP3A4 (Homo sapiens)
Construct: Mixed human liver microsomes; from tissue; host or cells: mixed (pooled) human liver microsomes
Sequence (P08684 whole entry): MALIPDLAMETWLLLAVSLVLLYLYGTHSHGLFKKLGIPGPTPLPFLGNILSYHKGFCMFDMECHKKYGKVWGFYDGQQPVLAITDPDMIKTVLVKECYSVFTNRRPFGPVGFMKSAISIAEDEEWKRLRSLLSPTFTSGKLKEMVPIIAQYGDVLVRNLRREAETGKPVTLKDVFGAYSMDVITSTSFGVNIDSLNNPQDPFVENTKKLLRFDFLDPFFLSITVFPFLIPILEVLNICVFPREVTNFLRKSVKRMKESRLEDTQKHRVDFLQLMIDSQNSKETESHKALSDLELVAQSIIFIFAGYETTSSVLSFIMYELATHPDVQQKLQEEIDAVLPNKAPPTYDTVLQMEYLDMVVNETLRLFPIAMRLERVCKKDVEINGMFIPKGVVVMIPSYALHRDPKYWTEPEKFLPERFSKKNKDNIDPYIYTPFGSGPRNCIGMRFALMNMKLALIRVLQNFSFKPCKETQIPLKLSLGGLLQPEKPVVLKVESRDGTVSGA
Assay: CYP inhibition assay in mixed human liver microsomes
Format: in vitro ADME
Details: probe midazolam, read-out: Inhibition Rate % CYP3A4 (midazolam)
Entries and their measured inhibition at 10 µM follow.

Compound: COC(=O)NS(=O)(=O)c1sc(CC(C)C)c(C)c1-c1ccc(Cn2ccnc2C(F)(F)F)cc1 [Compound I-9]
inhibition at 10 µM / %: 0
--
Compound: COC(=O)NS(=O)(=O)c1sc(CC(C)C)c(C)c1-c1ccc(Cn2ccnc2C(C)(C)O)cc1 [Compound I-19]
inhibition at 10 µM / %: 7.6
--
Compound: Cc1c(CC(C)C)sc(S(=O)(=O)Nc2ncccn2)c1-c1ccc(Cn2ccnc2Cl)cc1 [Compound I-23]
inhibition at 10 µM / %: 0
--
Compound: Cc1c(CC(C)C)sc(S(=O)(=O)NC(=O)OCC(C)(C)O)c1-c1ccc(Cn2ccnc2C(F)(F)F)cc1 [Compound I-10]
inhibition at 10 µM / %: 0

* * *

Quick reference: AUC(0-t) of the listed items.
Assay: Pharmacokinetic study following single oral gavage administration to cynomolgus monkeys
Type: in vivo
Settings: cynomolgus monkey, plasma, 5 mg/kg; Monkey PK PO (5 mpk)
Measured attribute: AUC(0-t) (ng·h/mL)

Molecule: CCCCOC(=O)NS(=O)(=O)c1sc(CC(C)C)cc1-c1ccc(Cn2ccnc2)cc1 [Control Compound I, reference compound]
Value units: ng·h/mL
Result value: 4920

Molecule: COC(=O)NS(=O)(=O)c1sc(CC(C)C)c(C)c1-c1ccc(Cn2ccnc2C(F)(F)F)cc1
Value units: ng·h/mL
Result value: 7790

Molecule: Cc1c(CC(C)C)sc(S(=O)(=O)NC(=O)OCC(C)(C)O)c1-c1ccc(Cn2ccnc2C(F)(F)F)cc1
Value units: ng·h/mL
Result value: 5570

Molecule: COC(=O)NS(=O)(=O)c1sc(CC(C)C)c(C)c1-c1ccc(Cn2ccnc2Cl)c(F)c1
Value units: ng·h/mL
Result value: 7350

Molecule: COC(=O)NS(=O)(=O)c1sc(CC(C)C)c(C)c1-c1ccc(Cn2ccnc2C(C)(C)O)cc1
Value units: ng·h/mL
Result value: 6820

* * *

Target: CYP2C19 (Homo sapiens)
Construct: Mixed human liver microsomes; from tissue; host or cells: mixed (pooled) human liver microsomes
Sequence (P33261 whole entry): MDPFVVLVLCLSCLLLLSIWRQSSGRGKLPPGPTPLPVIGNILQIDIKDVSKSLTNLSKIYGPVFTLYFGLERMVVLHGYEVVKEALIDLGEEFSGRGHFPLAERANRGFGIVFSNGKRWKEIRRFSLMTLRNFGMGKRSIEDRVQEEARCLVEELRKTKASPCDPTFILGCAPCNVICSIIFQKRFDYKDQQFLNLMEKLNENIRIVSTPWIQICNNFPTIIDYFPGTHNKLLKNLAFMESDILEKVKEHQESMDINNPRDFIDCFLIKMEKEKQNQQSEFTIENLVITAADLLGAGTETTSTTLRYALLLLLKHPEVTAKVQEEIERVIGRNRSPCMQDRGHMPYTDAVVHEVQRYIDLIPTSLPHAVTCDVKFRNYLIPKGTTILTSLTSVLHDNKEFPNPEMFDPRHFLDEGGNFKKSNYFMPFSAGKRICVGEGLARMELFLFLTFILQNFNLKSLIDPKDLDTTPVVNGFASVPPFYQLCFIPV
Assay: CYP inhibition assay in mixed human liver microsomes
Format: in vitro ADME
Conditions: read-out: Inhibition Rate % CYP2C19
Measured attribute: inhibition at 10 µM (%)

Compound: CCCCOC(=O)NS(=O)(=O)c1sc(CC(C)C)cc1-c1ccc(Cn2ccnc2)cc1 [Control Compound I, reference compound]
Value units: %
Result value: 100

Compound: COC(=O)NS(=O)(=O)c1sc(CC(C)C)c(C)c1-c1ccc(Cn2ccnc2Cl)c(F)c1
Value units: %
Result value: 11.9

Compound: COC(=O)NS(=O)(=O)c1sc(CC(C)C)c(C)c1-c1ccc(Cn2ccnc2C(F)(F)F)cc1
Value units: %
Result value: 29.8

Compound: Cc1c(CC(C)C)sc(S(=O)(=O)Nc2ncccn2)c1-c1ccc(Cn2ccnc2Cl)cc1
Value units: %
Result value: 15.4

Compound: Cc1c(CC(C)C)sc(S(=O)(=O)NC(=O)OCC(C)(C)O)c1-c1ccc(Cn2ccnc2C(F)(F)F)cc1
Value units: %
Result value: 7.4

Compound: COC(=O)NS(=O)(=O)c1sc(CC(C)C)c(C)c1-c1ccc(Cn2ccnc2C(C)(C)O)cc1
Value units: %
Result value: 0

Compound: Cc1c(CC(C)C)sc(S(=O)(=O)NC(=O)OCCO)c1-c1ccc(Cn2ccnc2C(F)(F)F)cc1
Value units: %
Result value: 17.3
